Test system: Escherichia coli
Assay: Antibacterial activity against aminoglycoside-susceptible Escherichia coli TG1 after 12 to 18 hrs
Type: functional

sampleSmiles | MIC [µg/mL]
C[C@H]1O[C@@H](O[C@@H]2[C@@H](O)[C@H](NC(=O)[C@@H](O)CCN)C[C@H](N)[C@H]2O[C@H]2O[C@H](CN)[C@@H](O)[C@H](O)[C@H]2N)[C@H](O)[C@@H](O)[C@@H]1N | 4
NCC[C@H](O)C(=O)N[C@@H]1C[C@H](N)[C@@H](O[C@H]2O[C@H](CN)[C@@H](O)[C@H](O)[C@H]2N)[C@H](O[C@@H]2O[C@H](CO)[C@H](O)[C@H]2O)[C@H]1O | 1
NC[C@H]1O[C@H](O[C@H]2[C@H](O[C@@H]3O[C@H](CO)[C@@H](O)[C@H]3O)[C@@H](O)[C@H](N)C[C@@H]2N)[C@H](N)[C@@H](O)[C@@H]1O | 4

The measured values listed here are drawn from ChEMBL document CHEMBL1137524.
